# assayed-system: T1, recombinant purified human IL-12 p70 (human, UniProt P29459 23-219)
# T1 construct: Disulfide-linked heterodimer of p35 and p40; also called hIL-12; Hu IL-12
# T1 sequence 1: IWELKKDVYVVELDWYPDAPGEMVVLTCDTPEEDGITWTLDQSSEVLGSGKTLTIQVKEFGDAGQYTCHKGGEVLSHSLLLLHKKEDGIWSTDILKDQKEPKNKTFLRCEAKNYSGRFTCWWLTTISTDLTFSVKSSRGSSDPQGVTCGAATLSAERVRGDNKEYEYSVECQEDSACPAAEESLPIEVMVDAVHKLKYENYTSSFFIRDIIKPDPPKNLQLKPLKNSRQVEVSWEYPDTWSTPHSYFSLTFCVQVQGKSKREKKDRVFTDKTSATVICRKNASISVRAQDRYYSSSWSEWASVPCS
# T1 sequence 2: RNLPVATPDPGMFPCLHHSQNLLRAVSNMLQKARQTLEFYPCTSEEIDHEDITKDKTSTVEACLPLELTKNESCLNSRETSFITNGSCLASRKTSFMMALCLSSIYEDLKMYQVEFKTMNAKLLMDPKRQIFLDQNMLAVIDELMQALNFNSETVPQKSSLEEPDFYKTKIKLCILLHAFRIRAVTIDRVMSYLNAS
# test-summary: SPR (BIAcore) as in Example 1.1.B, human IL-12p70
# Description: Approximately 5000 RU of goat anti-mouse IgG, (Fcγ), fragment specific polyclonal antibody (Pierce Biotechnology Inc, Rockford, Ill.) diluted in 10 mM sodium acetate (pH 4.5) was directly immobilized across a CM5 research grade biosensor chip using a standard amine coupling kit according to manufacturer's instructions and procedures at 25 μg/ml. […] The association and dissociation rate constants, kₒₙ (unit M⁻¹ s⁻¹) and koff (unit s⁻¹) were determined under a continuous flow rate of 25 μl/min. […]
quantity: koff (s⁻¹)

- anti-IL-12p40 humanized antibody 3G7.3 (antibody, human IgG1, kappa, L234A L235A, V domains shown, Back-mutated CDR-grafted antibody; COS cells) VH: EVQLVQSGAEVKKPGASVKVSCKATGYTFNDYWIEWVRQAPGQGLEWMGGFSHGSGSTNYNEKFKGRVTMTADSSTNTAYMELRSLRSDDTAVYYCARRRFRGMDYWGQGTTVTVSS VL: EIVMTQSPATLSVSPGERATLSCKASQSVSNDVAWYQQKPGQAPRLLIYYASNRYTGVPDRFSGSGSGTEFTLTISSLQSEDFAVYYCQQDYSSPWSFGGGTKVEIKR: 0.00015
- anti-IL-12p40 humanized antibody 8E1.3 (antibody, human IgG1, kappa, L234A L235A, V domains shown, Back-mutated CDR-grafted antibody; COS cells) VH: EVKLVESGGGLVQPGGSLRLSCAASGFTFSDYGMVWVRQAPGKGLEWVASISSGSSNIYYADTVKGRFTISRDDSKNTLYLQMNSLKTEDTAVYYCARNPYWGQGTTVTVSS VL: DIVMTQSPSSLSASVGDRVTITCKASQNVGTNVAWYQQKPEKAPKSLIYSASHRYSGVPSRFSGSGSGTDFTLTISSLQPEDFATYYCQQYNSYPLTFGGGTKVEIKR: 0.001
